Dear all, I have gathered published Ki values for UniProtKB P31424; the list follows.

Sample records with Ki:
{"Smiles representation": "CC1CCN(c2c(S(=O)(=O)c3ccc(F)cc3)cnc3ccc(Cl)cc23)CC1", "Ki": "< 0.2 µM"}
{"Smiles representation": "CC1CCN(c2c(S(=O)(=O)c3cccc(Cl)c3)cnc3ccc(Cl)cc23)CC1", "Ki": "> 0.5 µM"}
{"Smiles representation": "COc1cccc(Nc2c(S(=O)(=O)c3ccc(C)cc3)cnc3ccccc23)c1", "Ki": "> 0.5 µM"}
{"Smiles representation": "Cc1ccc(S(=O)(=O)c2sc3ncccc3c2-c2ccc(F)cc2)cc1F", "Ki": "< 0.5 µM"}

Now for a further molecule.
Q: Can you share its Ki? I mean this molecule: CN(Cc1cccs1)C(=O)c1sc2ncccc2c1-c1ccc(Cl)cc1
A: > 1.5 µM
